# TGT: Peroxisome proliferator-activated receptor gamma (Homo sapiens) (UniProt P37231)
# Sequence (whole entry): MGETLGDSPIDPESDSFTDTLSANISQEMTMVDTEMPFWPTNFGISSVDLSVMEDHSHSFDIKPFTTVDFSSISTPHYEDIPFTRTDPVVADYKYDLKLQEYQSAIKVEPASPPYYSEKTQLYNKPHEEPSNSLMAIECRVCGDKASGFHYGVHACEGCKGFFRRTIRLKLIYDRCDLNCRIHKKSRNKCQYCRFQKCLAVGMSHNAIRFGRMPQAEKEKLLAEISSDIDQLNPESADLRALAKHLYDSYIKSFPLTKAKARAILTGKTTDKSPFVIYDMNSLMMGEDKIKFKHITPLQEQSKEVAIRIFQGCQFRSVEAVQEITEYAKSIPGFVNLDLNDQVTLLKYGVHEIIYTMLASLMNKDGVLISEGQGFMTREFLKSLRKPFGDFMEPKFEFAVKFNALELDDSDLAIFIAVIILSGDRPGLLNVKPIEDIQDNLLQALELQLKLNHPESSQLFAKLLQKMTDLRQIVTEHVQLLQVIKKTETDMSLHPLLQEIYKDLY
# ASSAY_METHOD_TEXT: Antagonist activity at human PPARgamma receptor expressed in Saccharomyces cerevisiae AH109 co-transfected with mouse CBP assessed as inhibition of rosiglitazone-induced LBD-CBP interaction at 10 uM by alpha-galactosidase based yeast two hybrid assay
# Assay type: functional
The source made the active and inactive calls. No cut-off for these calls is given here. Non-standard residues stand in square brackets, D forms with d. Residues, ends and D or L forms follow the SMILES beside them. *: point of attachment. 2Nal = N[C@@H](Cc1ccc2ccccc2c1)C(=O)O; Aad = N[C@@H](CCCC(=O)O)C(=O)O; OBn = c1ccc(CO*)cc1
QUANTITY_MEASURED: inhibition

{"COMPOUND": "N[C@@H](Cc1c[nH]c2ccccc12)C(=O)N[C@H](CCC(=O)O)C(=O)O", "QUANTITY_MEASURED": "inhibition", "OBS_VALUE": "0.4%"}
{"COMPOUND": "N[C@H](Cc1c[nH]c2ccccc12)C(=O)N[C@@H](CC(=O)O)C(=O)O", "QUANTITY_MEASURED": "inhibition", "OBS_VALUE": "0.68%"}
{"COMPOUND": "COC(=O)[C@H](CC(C)C)NC(=O)[C@@H](N)Cc1c[nH]c2ccccc12 (H-Trp-Leu-OMe)", "QUANTITY_MEASURED": "inhibition", "OBS_VALUE": "5.29%"}
{"COMPOUND": "N[C@H](Cc1c[nH]c2ccccc12)C(=O)N[C@H](CC(=O)O)C(=O)O", "QUANTITY_MEASURED": "inhibition", "OBS_VALUE": "0.42%"}
{"COMPOUND": "N[C@@H](Cc1ccccc1)C(=O)N[C@@H](CC(=O)O)C(=O)O (H-Phe-Asp-OH)", "QUANTITY_MEASURED": "inhibition", "OBS_VALUE": "1.12%"}
{"COMPOUND": "COC(=O)[C@H](CC(C)C)NC(=O)[C@@H](N)Cc1ccc2ccccc2c1 (H-[2Nal]-Leu-OMe)", "QUANTITY_MEASURED": "inhibition", "OBS_VALUE": "4.34%"}
{"COMPOUND": "N[C@@H](Cc1ccc2ccccc2c1)C(=O)N[C@@H](CCC(=O)OCc1ccccc1)C(=O)OCc1ccccc1 (H-[2Nal]-Glu(OBn)-OBn)", "QUANTITY_MEASURED": "inhibition", "OBS_VALUE": "27.7%"}
{"COMPOUND": "COC(=O)CC[C@H](NC(=O)[C@@H](N)Cc1c[nH]c2ccccc12)C(=O)OC", "QUANTITY_MEASURED": "inhibition", "OBS_VALUE": "4.05%"}
{"COMPOUND": "N[C@@H](Cc1c[nH]c2ccccc12)C(=O)N[C@@H](CCCC(=O)O)C(=O)O (H-Trp-[Aad]-OH)", "QUANTITY_MEASURED": "inhibition", "OBS_VALUE": "70%"}
{"COMPOUND": "NC(=O)C[C@H](NC(=O)[C@@H](N)Cc1c[nH]c2ccccc12)C(=O)O (H-Trp-Asn-OH)", "QUANTITY_MEASURED": "inhibition", "OBS_VALUE": "36.3%"}
{"COMPOUND": "COC(=O)CC[C@H](NC(=O)[C@@H](N)Cc1ccccc1)C(=O)OC", "QUANTITY_MEASURED": "inhibition", "OBS_VALUE": "3.99%"}
{"COMPOUND": "COC(=O)C[C@H](NC(=O)[C@H](N)Cc1ccccc1)C(=O)OC", "QUANTITY_MEASURED": "inhibition", "OBS_VALUE": "inactive"}
{"COMPOUND": "COC(=O)CC[C@H](NC(=O)[C@@H](N)Cc1ccc2ccccc2c1)C(=O)OC (H-[2Nal]-Glu(OMe)-OMe)", "QUANTITY_MEASURED": "inhibition", "OBS_VALUE": "14.7%"}
{"COMPOUND": "COC(=O)CC[C@H](NC(=O)[C@H](N)Cc1ccccc1)C(=O)OC", "QUANTITY_MEASURED": "inhibition", "OBS_VALUE": "inactive"}
{"COMPOUND": "N[C@@H](Cc1ccccc1)C(=O)N[C@@H](CC(=O)OCc1ccccc1)C(=O)OCc1ccccc1 (H-Phe-Asp(OBn)-OBn)", "QUANTITY_MEASURED": "inhibition", "OBS_VALUE": "inactive"}
{"COMPOUND": "COC(=O)CCC[C@H](NC(=O)[C@H](N)Cc1ccccc1)C(=O)OC", "QUANTITY_MEASURED": "inhibition", "OBS_VALUE": "inactive"}
{"COMPOUND": "CC(C)C[C@H](NC(=O)[C@@H](N)Cc1c[nH]c2ccccc12)C(=O)O (H-Trp-Leu-OH)", "QUANTITY_MEASURED": "inhibition", "OBS_VALUE": "58.2%"}
{"COMPOUND": "N=C(N)NCCC[C@H](NC(=O)[C@@H](N)Cc1c[nH]c2ccccc12)C(=O)O (H-Trp-Arg-OH)", "QUANTITY_MEASURED": "inhibition", "OBS_VALUE": "45%"}
{"COMPOUND": "N[C@@H](Cc1ccccc1)C(=O)N[C@@H](CCC(=O)O)C(=O)O (H-Phe-Glu-OH)", "QUANTITY_MEASURED": "inhibition", "OBS_VALUE": "4.3%"}
{"COMPOUND": "N[C@@H](Cc1ccccc1)C(=O)N[C@@H](CCC(=O)OCc1ccccc1)C(=O)OCc1ccccc1 (H-Phe-Glu(OBn)-OBn)", "QUANTITY_MEASURED": "inhibition", "OBS_VALUE": "inactive"}
{"COMPOUND": "COC(=O)CC[C@H](NC(=O)[C@@H](N)Cc1ccc(OC)cc1)C(=O)OC (H-Tyr(Me)-Glu(OMe)-OMe)", "QUANTITY_MEASURED": "inhibition", "OBS_VALUE": "5.26%"}
{"COMPOUND": "N[C@@H](Cc1c[nH]c2ccccc12)C(=O)N[C@@H](CC(=O)O)C(=O)O", "QUANTITY_MEASURED": "inhibition", "OBS_VALUE": "57.8%"}
{"COMPOUND": "N[C@@H](Cc1c[nH]c2ccccc12)C(=O)N[C@@H](CC(=O)OCc1ccccc1)C(=O)OCc1ccccc1 (H-Trp-Asp(OBn)-OBn)", "QUANTITY_MEASURED": "inhibition", "OBS_VALUE": "5.33%"}
{"COMPOUND": "N[C@@H](Cc1ccc2ccccc2c1)C(=O)N[C@@H](CCC(=O)O)C(=O)O (H-[2Nal]-Glu-OH)", "QUANTITY_MEASURED": "inhibition", "OBS_VALUE": "2.1%"}
{"COMPOUND": "NC(=O)CC[C@H](NC(=O)[C@@H](N)Cc1c[nH]c2ccccc12)C(=O)O (H-Trp-Gln-OH)", "QUANTITY_MEASURED": "inhibition", "OBS_VALUE": "38.6%"}
{"COMPOUND": "COC(=O)[C@H](CC(C)C)NC(=O)[C@H](N)Cc1ccccc1", "QUANTITY_MEASURED": "inhibition", "OBS_VALUE": "inactive"}
{"COMPOUND": "N[C@@H](Cc1c[nH]c2ccccc12)C(=O)N[C@H](CCC(=O)OCc1ccccc1)C(=O)OCc1ccccc1", "QUANTITY_MEASURED": "inhibition", "OBS_VALUE": "inactive"}
{"COMPOUND": "COC(=O)[C@H](C)NC(=O)[C@@H](N)Cc1ccccc1", "QUANTITY_MEASURED": "inhibition", "OBS_VALUE": "inactive"}
{"COMPOUND": "N[C@@H](Cc1c[nH]c2ccccc12)C(=O)N[C@H](CC(=O)O)C(=O)O", "QUANTITY_MEASURED": "inhibition", "OBS_VALUE": "15.5%"}
{"COMPOUND": "COC(=O)CCC[C@H](NC(=O)[C@@H](N)Cc1c[nH]c2ccccc12)C(=O)OC (H-Trp-[Aad](OMe)-OMe)", "QUANTITY_MEASURED": "inhibition", "OBS_VALUE": "8.74%"}
{"COMPOUND": "COC(=O)C[C@H](NC(=O)[C@@H](N)Cc1c[nH]c2ccccc12)C(=O)OC (H-Trp-Asp(OMe)-OMe)", "QUANTITY_MEASURED": "inhibition", "OBS_VALUE": "inactive"}
{"COMPOUND": "COC(=O)CC[C@@H](NC(=O)[C@@H](N)Cc1c[nH]c2ccccc12)C(=O)OC", "QUANTITY_MEASURED": "inhibition", "OBS_VALUE": "inactive"}
{"COMPOUND": "CC(C)C[C@H](NC(=O)[C@@H](N)Cc1c[nH]c2ccccc12)C(=O)OCc1ccccc1 (H-Trp-Leu-OBn)", "QUANTITY_MEASURED": "inhibition", "OBS_VALUE": "inactive"}
{"COMPOUND": "N[C@@H](Cc1c[nH]c2ccccc12)C(=O)N[C@@H](CCC(=O)O)C(=O)O", "QUANTITY_MEASURED": "inhibition", "OBS_VALUE": "43.2%"}

Source of measurements: ChEMBL document CHEMBL1154460
